- Assay explanation: Selectivity index, ratio of Ki for displacement of [3H]CGP12177 from human beta2 adrenoceptor expressed in CHO cell membranes to Ki for displacement of [3H]CGP12177 from mouse beta1 adrenoceptor expressed in HEK293T cell membranes
Please respond with reported Ratio Ki for every item in the list.

See these solved cases before continuing.
COc1cc(CCNC[C@H](O)COc2ccc(COCCOC(C)C)cc2)ccc1OCCSSCCN: 20
COc1cc(CCNC[C@@H](O)COc2cccc3ccccc23)ccc1OCCCSSCCN: 0.033

// next item, Ratio Ki requested
Asked: Field request: Ratio Ki | item: Cn1cc(C(F)(F)F)nc1-c1ccc(OC[C@@H](O)CNCCOc2ccc(OCCSSCCN)c(C(N)=O)c2)cc1
Given back: 41

----------
Kindly state pKi for each of the entries shown.
- Target system: Beta-2 adrenergic receptor (Homo sapiens, UniProt P07550)
- Sequence (P07550 whole entry): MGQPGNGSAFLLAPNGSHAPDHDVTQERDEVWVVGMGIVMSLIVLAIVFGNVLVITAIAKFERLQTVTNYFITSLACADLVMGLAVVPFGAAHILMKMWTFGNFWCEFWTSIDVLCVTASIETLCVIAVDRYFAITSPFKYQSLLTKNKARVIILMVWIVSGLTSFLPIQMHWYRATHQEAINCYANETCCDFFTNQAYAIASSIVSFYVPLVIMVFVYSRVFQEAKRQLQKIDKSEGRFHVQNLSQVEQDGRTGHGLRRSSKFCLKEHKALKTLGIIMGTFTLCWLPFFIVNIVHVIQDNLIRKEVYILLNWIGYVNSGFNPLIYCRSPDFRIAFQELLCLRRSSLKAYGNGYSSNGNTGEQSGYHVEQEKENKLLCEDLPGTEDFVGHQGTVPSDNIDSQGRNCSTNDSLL
- Assay explanation: Displacement of [3H]CGP12177 from human beta2 adrenoceptor expressed in CHO cell membranes
Numbers only, as −log10 of the molar value.

COCCc1ccc(OC[C@H](O)CNCCc2ccc(OCCSSCCN)c(OC)c2)cc1: 5.89
COc1cc(CCNC[C@H](O)COc2ccc(COCCOC(C)C)cc2)ccc1OCCSSCCN: 7.29
COc1cc(CCNC[C@H](O)COc2ccc(-c3nc(C(F)(F)F)cn3C)cc2)ccc1OCCSSCCN: 5.66
Cn1cc(C(F)(F)F)nc1-c1ccc(OC[C@@H](O)CNCCOc2ccc(OCCSSCCN)c(C(N)=O)c2)cc1: 5.70
COCCc1ccc(OC[C@H](O)CNCCc2ccc(OCCCSSCCN)c(OC)c2)cc1: 6.49

Let us examine a further case.
Asked: What does the data say about its pKi? Entry: COc1cc(CCNC[C@@H](O)COc2cccc3ccccc23)ccc1OCCSSCCN
Given back: 8.47

----------
A set of compounds tested on Beta-1 adrenergic receptor (Mus musculus, UniProt P34971), with measured pKi:
Give bare numbers, as −log10 of the molar value.

For every record below, what is its pKi?
1. Cn1cc(C(F)(F)F)nc1-c1ccc(OCC(O)CNCCOc2ccc(O)c(C(N)=O)c2)cc1 (stereo not given) [CGP-20712A]
2. COc1cc(CCNC[C@H](O)COc2cccc3ccccc23)ccc1OCCSSCCN
3. COCCc1ccc(OC[C@@H](O)CNCCc2ccc(OCCCSSCCN)c(OC)c2)cc1

Given back:
[8.85, 9.31, 7.66]

For each listed entry, give its pKi.
1. COCCc1ccc(OCC(O)CNC(C)C)cc1 (racemic) [METOPROLOL]
2. COc1cc(CCNC[C@H](O)COc2cccc3ccccc23)ccc1OCCCSSCCN

Given back:
1: 7.31; 2: 8.96
